Molecular target: Virion infectivity factor (Human immunodeficiency virus type 1 group M subtype B (isolate BH10)) + Virion infectivity factor (Human immunodeficiency virus type 1 group M subtype B (isolate BRU/LAI)) + Virion infectivity factor (Human immunodeficiency virus type 1 group M subtype B (isolate PCV12)) + Virion infectivity factor (Human immunodeficiency virus type 1 group M subtype B (isolate HXB2)) + DNA dC->dU-editing enzyme APOBEC-3G (Homo sapiens) (UniProt P69720+P69721+P69722+P69723+Q9HC16)
Assay: HIV-1 Vif–A3G interaction blockers – biochemical, TR-FRET, GST-Vif 1-94, biotin-A3G peptide, dose response retest, primary screen (AID 1117319);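 further: Vif residues 1-94 fused to GST binding biotinylated APOBEC3G peptide 110-148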
Settings: TR-FRET GST-Vif / biotin-A3G peptide binding
Results filed as inconclusive are left out.
MEASURED_ATTRIBUTE: IC50

COMPOUND	VAL
O=C1C(=Cc2ccco2)CCCC1=Cc1ccco1	12.1 µM
Cc1nc2cc(-c3ccsc3-n3c(C)ccc3C)[nH]n2c(=O)c1Cl	2.92 µM
C=C(C)C(=O)Nc1cccc(C2=NOC3(C2)C[C@@H](C(N)=O)N(C(=O)CC(c2ccccc2)c2ccccc2)C3)c1 (stereo not given in full)	3.06 µM
COC(=O)CCC(=O)OC1(C)C(=O)C2=CN(CCCOC(C)C)C(c3ccc(OC)cc3)=CC2=C(Br)C1=O (stereo not given)	11.5 µM
Cc1c(C(=O)O)cccc1-n1c(C)cc(/C=N/Nc2ccc([N+](=O)[O-])cn2)c1C	12.6 µM

Now examine the next entry.
Reported IC50 for CCc1cc(=O)n2[nH]c(C)c(-c3ccccc3OC)c2n1 was 4.38 µM

---

Biological target: Virion infectivity factor (Human immunodeficiency virus type 1 group M subtype B (isolate BH10)) + Virion infectivity factor (Human immunodeficiency virus type 1 group M subtype B (isolate BRU/LAI)) + Virion infectivity factor (Human immunodeficiency virus type 1 group M subtype B (isolate PCV12)) + Virion infectivity factor (Human immunodeficiency virus type 1 group M subtype B (isolate HXB2)) + DNA dC->dU-editing enzyme APOBEC-3G (Homo sapiens) (UniProt P69720+P69721+P69722+P69723+Q9HC16)
Assay: HIV-1 Vif–A3G interaction blockers – biochemical, TR-FRET, GST-Vif 1-94, biotin-A3G peptide, dose response retest, primary screen (AID 1117319);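 further: Vif residues 1-94 fused to GST binding biotinylated APOBEC3G peptide 110-148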
Conditions: TR-FRET GST-Vif / biotin-A3G peptide binding
Records with an inconclusive call do not appear.
MEASURED_ATTRIBUTE: IC50

COMPOUND	IC50
O=C(O)CSc1c2c(nc3cc(C(=O)N4CCOCC4)ccc13)CCCC2	5.6 µM

Recorded result, COc1ccc2nc3ccccc3nc2c1N , IC50: 6 µM

For this compound ( O=C(NCc1ccc2c(c1)OCO2)c1cc2ncc(Br)cn2n1 ), measured IC50 is 33.7 µM

For record Cc1cc(Cl)c(S(=O)(=O)NCC2CCCO2)cc1OCC(=O)NC1CCCCC1 (stereo not given) the listed IC50 is 77.1 µM

The measured IC50 associated with c1ccc2c(c1)CCCN2Cc1nnc2n1CCCCC2 reads 31.5 µM

The compound identified as O=C(COC(=O)c1c2c(nc3ccccc13)/C(=C\c1ccco1)CC2)NC1CCCC1 registered its IC50 at 3.67 µM

IC50 for CCc1c(C)sc(NC(=O)OC)c1C(=O)N1CCCCC1 is 42.7 µM

Reported IC50 of CCOC(=O)C1CCCC12Nc1cccc3cccc(c13)N2 (stereo not given) : 3.74 µM

Briefly, IC50 measured for CC(Cc1c[nH]c2ccccc12)C(=O)NCc1ccco1 (stereo not given) : 33 µM

What the record says about O=C1NC(=S)S/C1=C\C=C\c1ccc([N+](=O)[O-])o1 : IC50 is 1.84 µM

Looking up CN(C1=C(NC(=O)c2ccc(Cl)cc2)C(=O)c2ccccc2C1=O)c1ccccc1 , I see its IC50 listed as 52.4 µM

Memo: O=C(O)/C(=C/c1ccco1)NC(=O)c1ccccc1 , reported IC50: 19.4 µM

Notebook: O=[N+]([O-])c1ccc(Cl)c(S(=O)(=O)Nc2cccc(S(=O)(=O)NC3=NCCC3)c2)c1 , IC50 read as 5.64 µM

What the record says about COc1cc(-c2ccc(Nc3ccccc3C(=O)O)c(OC)c2)ccc1Nc1ccccc1C(=O)O : IC50 is 0.94 µM

Summary for this compound, Cc1ccnc(NS(=O)(=O)c2ccc(NC(=O)Cc3cccs3)cc2)n1 : IC50 is 8.35 µM

// field: IC50; key: N#Cc1ccccc1CN1C(=O)S/C(=C/c2cccn2-c2cccc(C(=O)O)c2)C1=O ; value = 18.5 µM

Noted for CCN(C(=O)c1coc(=O)c(Br)c1)c1ccc2c(c1)OCO2 : its IC50 reads 1.06 µM

Per the record, O=C1CCCC2=C1C(c1ccco1)Nc1ccc3ccccc3c12 (stereo not given) has IC50 of 4.21 µM

IC50 recorded for this compound, Cc1onc(-c2ccccc2Cl)c1C(=O)NCc1ccco1 , is 1.08 µM

Form field IC50, entry Fc1cccc(-c2cc3nc4c(c(NCc5ccco5)n3n2)CCCC4)c1 : 50.8 µM

compound Cn1c(SCC(=O)c2cc(Cl)c(Cl)s2)nnc1-c1ccco1 , IC50 observed: 30.7 µM

Input CC(C)Nc1ccc(Nc2ccccc2)cc1 . Output IC50: 9.18 µM

---

Target: Virion infectivity factor (Human immunodeficiency virus type 1 group M subtype B (isolate BH10)) + Virion infectivity factor (Human immunodeficiency virus type 1 group M subtype B (isolate BRU/LAI)) + Virion infectivity factor (Human immunodeficiency virus type 1 group M subtype B (isolate PCV12)) + Virion infectivity factor (Human immunodeficiency virus type 1 group M subtype B (isolate HXB2)) + DNA dC->dU-editing enzyme APOBEC-3G (Homo sapiens) (UniProt P69720+P69721+P69722+P69723+Q9HC16)
Experiment: HIV-1 Vif–A3G interaction blockers – biochemical, TR-FRET, GST-Vif 1-94, biotin-A3G peptide, dose response retest, primary screen (AID 1117319);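 further: Vif residues 1-94 fused to GST binding biotinylated APOBEC3G peptide 110-148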
Conditions: TR-FRET GST-Vif / biotin-A3G peptide binding
pIC50: −log10 of the molar value. Results filed as inconclusive are left out.
Outcome label depends on pIC50 relative to 5: at/above gives TRUE, below gives FALSE.

// below: answered compounds
COMPOUND	CLASS
O=C(CCc1ccc(S(=O)(=O)NCCc2ccccc2)cc1)Nc1ccc2c(c1)OCO2	FALSE
Cc1ccc(Cl)cc1N1CCN(C(=O)COc2ccc3c(c2)CCC3)CC1	FALSE

Asked: Form field: pIC50 at least 5? Entry: Cc1ccc(S(=O)(=O)OCC(=O)Nc2ccc(C(=O)O)c(O)c2)cc1
Given back: FALSE

Asked: In plain terms: is recorded pIC50 at least 5 for O=C(Nc1cc(Cl)ccn1)C1CCN(S(=O)(=O)c2cccs2)CC1 ?
Given back: FALSE

Asked: Does CN1CCN(C2=C(Cl)C(=O)C(c3cnc(N4CCCCC4)s3)=C(Cl)C2=O)CC1 have a reported pIC50 of at least 5?
Given back: TRUE

Asked: Please tell me: is the compound COc1cc(C(=O)NNC(=S)NCc2ccco2)cc(OC)c1OC at or over 5 in terms of pIC50?
Given back: FALSE

Asked: Record O=C1CC=C2C3CC4N(CCC45c4cc(O)c(O)cc4N1C25)CC3=CCBr (stereo not given) ; criterion: pIC50 no lower than 5. Met?
Given back: TRUE

Asked: Does the reported pIC50 for O=C1C2C3CCCC3=C3CCCC3C2C(=O)N1c1ccccc1 (stereo not given) fall at or above the 5 mark?
Given back: TRUE

Asked: Quick check, pIC50 >= 5? CNc1ccccc(-c2ccc3cc4c(cc3n2)OCO4)c1=O
Given back: FALSE

Asked: Please check the record Cc1ccc2c(c1C)NC(C(=O)O)C1CC=CC21 (stereo not given) and state if its pIC50 is at or above 5.
Given back: TRUE

Asked: Reported pIC50 at or above 5? O=C(Cc1cccs1)N/N=C/C=C/c1ccco1
Given back: TRUE

Asked: Kindly determine if pIC50 recorded for COC(=O)c1ccc(CC(=O)c2c(C)cc(O)cc2O)o1 is above or exactly 5.
Given back: TRUE

Asked: In plain terms: is recorded pIC50 at least 5 for CCN(CC)c1ccc(N=Cc2ccc(N(CC)CC)cc2O)cc1 ?
Given back: FALSE

Asked: pIC50 >= 5 for CCOC(=O)C1CCCN(c2ncnc3c2cnn3-c2ccc(Cl)cc2)C1 (stereo not given) ?
Given back: FALSE

Asked: Quick check: does CC(=C/c1ccco1)/C=N/NC(=O)Cc1cccn1C have pIC50 greater than or equal to 5?
Given back: TRUE

Asked: Identify whether the reported pIC50 of the following compound is 5 or greater: Oc1ccc(/C=N/N=C/c2ccc(O)c(O)c2)cc1O
Given back: TRUE

Asked: hey, is pIC50 for this one >= 5? CCCCn1c(O)c(C(CC)=NCCN2CCCCC2)c(=O)[nH]c1=O
Given back: TRUE

Asked: Kindly determine if pIC50 recorded for O=C(Cc1ncn[nH]1)NCCc1ccccc1 is above or exactly 5.
Given back: FALSE

Asked: Does the reported pIC50 for CCc1ccc(NC(=O)N(CCN2CCOCC2)Cc2ccc3c(c2)CCCN3CC)cc1 fall at or above the 5 mark?
Given back: FALSE
